Numbers sourced from paper PMC6744468.

Molecular target: T1, GABARAP (ITC sample) (human, UniProt O95166 1-117)
T1 construct: GABARAP, human, purified protein for ITC
T1 sequence (O95166 whole entry): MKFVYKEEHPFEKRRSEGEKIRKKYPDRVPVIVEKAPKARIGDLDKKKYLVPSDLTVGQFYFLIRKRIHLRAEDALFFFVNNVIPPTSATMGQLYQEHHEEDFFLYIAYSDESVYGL
Assay: ITC; 0.4 mM PCM1 LIR peptide titrated into 0.025 mM LC3 and GABARAP proteins in 21 steps, 25 °C, 50 mM Tris-HCl pH 7.4, 100 mM NaCl, one-site binding model
Details: both partners purified
Property: Kd (µM)

1) SDEEDFVKVEDLPLKLTIY (PCM1, human, residues 1958-1976 with the core LIR FVKV; also called PCM1 LIR peptide; PCM LIR peptide; source: synthetic peptide, bought: GenScript Inc) [Human PCM1 LIR-contained peptide]; 6.4
